Quick reference: viability at 24 h, 25 µM of the listed items.
Experiment: Cell viability (MTT assay) in BV2 cells
Assay type: cell-based
Settings: mouse, BV2 microglial cells, 25 µM, mean ± SEM (n = 5)
Protocol: The cytotoxicity of compounds 1–7 was evaluated using the MTT (3-(4,5-dimethylthiazol-2-yl)-2,5-diphenyltetrazolium bromide) assay. The microglial BV2 cell line was obtained from the Rio de Janeiro Cell Bank (BCRJ), Brazil. […] Optical densities were measured using a spectrophotometer (BioTek Instruments microplate reader, Sinergy HT, Winooski, VT, USA) at a wavelength of 570 nm.

COMPOUND	viability at 24 h, 25 µM, %
CC(C)C1=CC(=O)C2=C(C1=O)C(O)CC1C2(C)CC(O)C(O)C1(C)C (stereo not shown)	85.1
CC(C)c1cc2c(cc1O)[C@@]1(C)C[C@@H](O)CC(C)(C)[C@@H]1CC2=O [Compound 6, 2α-hydroxysugiol]	81.7
CC(C)c1cc2c(cc1O)[C@@]1(C)C[C@@H](O)CC(C)(C)[C@@H]1CC2	85.4
CC(C)c1cc2c(cc1O)C1(C)CC(O)C(O)C(C)(C)C1CC2 (stereo not shown)	82.2
CC(C)c1cc2c(cc1O)C1(C)CC(O)C(O)C(C)(C)C1CC2=O (stereo not shown)	85.8
CC(=O)OC1CC(C)(C)C2CC3OC(=O)C2(C1)c1cc(O)c(C(C)C)cc1O3 (stereo not shown)	84.9
CC(=O)OC1CC(C)(C)C2CCc3cc(C(C)C)c(O)cc3C2(C(=O)O)C1 (stereo not shown)	86.8
